Tested on: A549/ATCC NSCLC
Assay: NCI-60 one-dose screen, 48 h
Conditions: 10 µM unless noted
Protocol: Growth inhibition of the A549/ATCC human Non-Small Cell Lung tumor cell line is measured as a screen for anti-cancer activity. Cells are grown in 96 well plates and exposed to the test compound for 48 hours. Compounds are tested at a single concentration, which is 10^-5 M for most compounds. The reported endpoint is percent growth (GI% or GIPRCNT), where numbers from 0 - 100% represent growth inhibition, and numbers from -100% - 0 represent cell death. […]
This is part of a sample that, as a whole, favours compounds with a hit. Of some 83,000 tested, about 20% had one in any assay. Active and inactive are the calls of the source. How the source made its calls: active means growth percent below 10; inactive means the rest.
Hi! Could you answer with just one of these? label 1 for active, label 0 for inactive

Qu. Hi, do you know how CCCCCCCCCCOC(=O)c1ccccc1C(=O)OCCCC came out in this test?
Ans. label 0

Qu. Hi, do you know how c1ccc(-c2ccc(-c3nc4ccccc4[nH]3)cc2)cc1 came out in this test?
Ans. label 0

Qu. Hi, do you know how Cc1ccc(C)c(-c2csc(Nc3ccc(C)c(C)c3)n2)c1 came out in this test?
Ans. label 0

Qu. Hi, do you know how COc1ccc(Br)c(/C=C2\SC(=Nc3ccc(O)cc3)NC2=O)c1 came out in this test?
Ans. label 0

Qu. Hi, do you know how O=c1c(-c2nc3ccccc3[nH]2)cc2ccccc2n1Cc1cn(Cc2ccc(N3CCOCC3)cc2)nn1 came out in this test?
Ans. label 0

Qu. Hi, do you know how CCOC(=O)c1cc2c(n1Cc1cc(OC)c(OC)c(OC)c1)-c1oncc1CCC2 came out in this test?
Ans. label 0

Qu. Hi, do you know how CC(=S)NC(=O)C(=O)/C=C1/NC(=O)C(=O)S1 came out in this test?
Ans. label 0

Qu. Hi, do you know how NC1(N2SC(S)=C3CCCC=C32)CCCCC1 came out in this test?
Ans. label 0

Qu. Hi, do you know how O=C(/C=C/c1ccc(C(F)(F)F)cc1)c1ccc(Nc2nc(NCCO)nc(N3CCOCC3)n2)cc1 came out in this test?
Ans. label 0

Qu. Hi, do you know how O=C(Nc1ncc(Cc2cccc(C(F)(F)F)c2)s1)C1COc2ccccc2O1 (stereo not drawn) came out in this test?
Ans. label 0

Qu. Hi, do you know how Cc1ccccc1CNC(=O)C1CN(c2ccc(Cl)cc2)N(c2ccc(Cl)cc2)C1=O (stereo not drawn) came out in this test?
Ans. label 0

Qu. Hi, do you know how Nc1nc(Nc2cccc(F)c2)nc2ccccc12 came out in this test?
Ans. label 0

Qu. Hi, do you know how COc1ccc(OC)c(NC(=O)/C(C#N)=C/c2ccco2)c1 came out in this test?
Ans. label 0

Qu. Hi, do you know how CCCC(=O)CC(C)=O.CCCC(=O)CC(C)=O.[Cu] came out in this test?
Ans. label 0

Qu. Hi, do you know how N[C@@H](CC/[N+]([O-])=N/O)C(=O)O came out in this test?
Ans. label 0

Qu. Hi, do you know how COc1ccccc1N1C(=N)S/C(=C\c2ccc(OCc3ccccc3F)cc2)C1=O came out in this test?
Ans. label 0

Qu. Hi, do you know how CCOc1ccc2c(c1)CN(Cc1ccc(Cl)cc1)CO2 came out in this test?
Ans. label 0

Qu. Hi, do you know how CCc1ccc(CNCC(O)c2ccccc2)cc1 (stereo not drawn) came out in this test?
Ans. label 0

Qu. Hi, do you know how Nc1nc(-c2ccccc2Br)nn1-c1nc2ccccc2s1 came out in this test?
Ans. label 0

Qu. Hi, do you know how O=C1/C(=C/c2cccc(O)c2)COc2ccc(O)cc21 came out in this test?
Ans. label 0

Qu. Hi, do you know how COc1ccc(C(=O)C2CC2c2ccc(Cl)cc2)cc1 (stereo not drawn) came out in this test?
Ans. label 0

Qu. Hi, do you know how COc1cccc2cc(N(C)c3nc(C)nc4ccsc34)ccc12 came out in this test?
Ans. label 1

Qu. Hi, do you know how O=C(/C=C/c1ccc(C(F)(F)F)cc1)c1ccc(Nc2nc(NCCO)nc(Nc3ccc(Cl)cc3)n2)cc1 came out in this test?
Ans. label 0
